Parameter CC50 at 48 h: see the listing below.
experiment: in vitro; assay type: cell-based; conditions: mouse
Quick note: give the figure in µM, leave out the unit.

CCC1=C(C)CN(C(=O)NCCc2ccc(S(=O)(=O)NC(=O)N[C@H]3CC[C@H](C)CC3)cc2)C1=O [Glim, glimepiride] :: 14.2

Could you now consider this next compound?
Given the entry CC(=O)Nc1nnc(S(N)(=O)=O)s1 [Aaz, acetazolamide] , report its measured CC50 at 48 h.
12.6

---

pKi, hCA II (Homo sapiens): measured values
Scale: negative log10 of molar concentration, which is what pKi denotes.

CCC1=C(C)CN(C(=O)NCCc2ccc(S(=O)(=O)NC(=O)N[C@H]3CC[C@H](C)CC3)cc2)C1=O [Glim, glimepiride] :: 4.70

Name the recorded pKi for CC(=O)c1ccc(S(=O)(=O)NC(=O)NC2CCCCC2)cc1 [Ace, acetohexamide] .
5.54

---

target: α-TcCA (Trypanosoma cruzi)
Sequence (Q4CVY4 entry or part of it): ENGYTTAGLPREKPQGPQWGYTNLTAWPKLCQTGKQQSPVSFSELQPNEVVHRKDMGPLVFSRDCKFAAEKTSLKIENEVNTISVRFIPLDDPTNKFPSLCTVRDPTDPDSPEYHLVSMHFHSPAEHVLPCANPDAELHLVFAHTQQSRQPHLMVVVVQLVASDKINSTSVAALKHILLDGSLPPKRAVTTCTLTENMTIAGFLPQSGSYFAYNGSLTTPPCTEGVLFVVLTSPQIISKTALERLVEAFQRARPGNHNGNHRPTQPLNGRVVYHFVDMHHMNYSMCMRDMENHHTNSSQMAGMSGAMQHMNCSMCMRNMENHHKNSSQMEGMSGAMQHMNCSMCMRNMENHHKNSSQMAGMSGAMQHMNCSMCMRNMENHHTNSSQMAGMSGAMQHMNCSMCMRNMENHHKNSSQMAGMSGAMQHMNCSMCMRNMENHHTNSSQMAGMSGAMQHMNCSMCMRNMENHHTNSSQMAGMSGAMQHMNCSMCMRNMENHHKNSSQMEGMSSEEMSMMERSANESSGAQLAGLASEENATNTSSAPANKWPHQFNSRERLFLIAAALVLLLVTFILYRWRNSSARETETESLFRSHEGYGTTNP
QUANTITY: pKi
Quick note: pKi values are minus log10 of concentrations in mol/L.

pKi lookup needed for CC(=O)c1ccc(S(=O)(=O)NC(=O)NC2CCCCC2)cc1 [Ace, acetohexamide] , thanks.
5.25

Thanks! And CCC1=C(C)CN(C(=O)NCCc2ccc(S(=O)(=O)NC(=O)N[C@H]3CC[C@H](C)CC3)cc2)C1=O [Glim, glimepiride] ?
4.45

---

system: T. cruzi epimastigotes, A1 strain; experiment: Trypanocidal activity, epimastigotes in vitro, A1 strain; assay type: cell-based; settings: Trypanosoma cruzi; 48 h, resazurin; ± SD; read-out: Epimastigote (In Vitro) A1 IC50
Threshold 20 µM: IC50 strictly smaller gives true (1), otherwise false (0).

Reference set (5 entries):
Cc1ccc(S(=O)(=O)NC(=O)NN2CC3CCCC3C2)cc1 (stereo not drawn) [Glic, gliclazide] :: true (1)
O=C(Cn1ccnc1[N+](=O)[O-])NCc1ccccc1 [Bzn, Benznidazole] :: true (1)
CC(=O)c1ccc(S(=O)(=O)NC(=O)NC2CCCCC2)cc1 [Ace, acetohexamide] :: false (0)
CCCCNC(=O)NS(=O)(=O)c1ccc(C)cc1 [Tol, tolbutamide] :: false (0)
CC1CS(=O)(=O)CCN1/N=C/c1ccc([N+](=O)[O-])o1 (stereo not drawn) [Nfx, Nifurtimox] :: false (0)

Switching to the query record.
In plain terms, does CCC1=C(C)CN(C(=O)NCCc2ccc(S(=O)(=O)NC(=O)N[C@H]3CC[C@H](C)CC3)cc2)C1=O [Glim, glimepiride] come in under 20 µM for IC50?
false (0)

---

target: hCA I (Homo sapiens)
Sequence (P00915 whole entry): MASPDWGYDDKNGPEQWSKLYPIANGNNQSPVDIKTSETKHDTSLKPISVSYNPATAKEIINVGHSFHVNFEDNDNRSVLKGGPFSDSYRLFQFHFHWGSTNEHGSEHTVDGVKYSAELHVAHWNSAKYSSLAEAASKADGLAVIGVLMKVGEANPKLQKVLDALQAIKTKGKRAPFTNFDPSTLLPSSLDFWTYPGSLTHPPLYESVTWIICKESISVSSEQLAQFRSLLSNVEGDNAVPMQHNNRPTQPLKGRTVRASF
pKi: −log10 of the molar value.
In this section, each of the compounds is paired with its reported pKi.

Previously resolved entries follow.
CC(=O)c1ccc(S(=O)(=O)NC(=O)NC2CCCCC2)cc1 [Ace, acetohexamide] :: 4.76
Cc1ccc(S(=O)(=O)NC(=O)NN2CC3CCCC3C2)cc1 (stereo not shown) [Glic, gliclazide] :: < 4.00
CCCCNC(=O)NS(=O)(=O)c1ccc(C)cc1 [Tol, tolbutamide] :: < 4.00

Lab note: next compound to report on.
Consider the compound shown here: CCC1=C(C)CN(C(=O)NCCc2ccc(S(=O)(=O)NC(=O)N[C@H]3CC[C@H](C)CC3)cc2)C1=O [Glim, glimepiride] What is its recorded pKi?
< 4.00

The reported measurements were obtained from paper PMC12114598.
